target: T1, human glucagon receptor (human, UniProt P47871 26-477); assay: SPA displacement of [125I]-glucagon from human glucagon receptor BHK membranes
T1 construct: whole, on cells; reporter assay on whole cells
T1 sequence (P47871 26-477): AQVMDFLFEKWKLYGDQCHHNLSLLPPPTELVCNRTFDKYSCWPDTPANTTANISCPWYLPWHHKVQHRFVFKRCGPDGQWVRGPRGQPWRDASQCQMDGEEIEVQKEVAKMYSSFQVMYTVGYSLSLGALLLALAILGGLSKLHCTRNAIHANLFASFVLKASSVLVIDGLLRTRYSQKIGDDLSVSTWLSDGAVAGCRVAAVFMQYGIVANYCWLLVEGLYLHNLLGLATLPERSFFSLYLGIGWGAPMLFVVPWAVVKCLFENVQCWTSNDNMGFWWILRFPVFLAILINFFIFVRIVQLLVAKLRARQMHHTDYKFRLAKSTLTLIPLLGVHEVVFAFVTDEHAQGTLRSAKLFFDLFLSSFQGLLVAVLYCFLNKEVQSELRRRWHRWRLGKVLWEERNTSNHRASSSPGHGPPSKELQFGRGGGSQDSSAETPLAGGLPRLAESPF
*1 amine or outer side, *2 acyl side, *3 side chain or, on linkers, in order; H or OH if unused. Where no end group is shown, it is not given here. Side-chain parts run from the residue outwards. [ ]: non-standard residue; d: D form. The star is where a group is joined. C18 diacid = O=C(O)CCCCCCCCCCCCCCCCC(=O)*; γGlu = O=C(O)[C@H](CCC(=O)[*:2])N[*:1]; Desaminohistidyl = O=C(CCc1c[nH]cn1)*; AEEA = NCCOCCOCC(=O)O; Aib = CC(C)(N)C(=O)O
Readout Kind: IC50 (nM)
Field format: number, assumed nM, no unit text.

Answered examples (4):
{"Binder": "[Desaminohistidyl][Aib]HGTFTSDVSRYLEGRAAREFIAWLLK([γGlu-γGlu-AEEA-γGlu-γGlu-C18 diacid])GSG", "Readout Kind": "IC50", "Reported Result": 11.4}
{"Binder": "[Desaminohistidyl][Aib]HGTFTSDVSRYLEEQAARK([AEEA-AEEA-γGlu-γGlu-γGlu-C18 diacid])FIAWLLR", "Readout Kind": "IC50", "Reported Result": 21.2}
{"Binder": "[Desaminohistidyl][Aib]HGTFTSDVSKYLEK([γGlu-γGlu-AEEA-AEEA-γGlu-C18 diacid])QAAREFIAWLLKGGG", "Readout Kind": "IC50", "Reported Result": 56}
{"Binder": "[Desaminohistidyl][Aib]HGTFTSDVSKYLEARAAREFIAWLLKGGG (not fully specified (residue 28); printed as Nε34-[(4S)-4-carboxy-4-[[2-[2-[2-[[2-[2-[2-[[(4S)-4-carboxy-4-[[(4S)-4-carboxy-4-(17-carboxyheptadecanoylamino)butanoyl]amino]butanoyl]amino]ethoxy]ethoxy]acetyl]amino]ethoxy]ethoxy]acetyl]amino]butanoyl]-[Imp7,Aib8,His9,Lys18,Ala22,Arg23,Arg26,Leu33,Gly36]-GLP-1-(7-37)-peptide)", "Readout Kind": "IC50", "Reported Result": 3.7}

Consider the additional binder presented here.
## Input State its IC50 for this binder: [Desaminohistidyl]GHGTFTSDVSRYLEEQAAREFIAWLLK([Gly-Ser-Glu-Gly-Ser-γGlu-γGlu-C18 diacid])T-NH2
## Output 9.6

Each recorded value in this set is attributed to patent US20160102129A1.
